Can you tell me growth inhibition for the items I'm about to list?
Experiment: NCI Yeast Anticancer Drug Screen. Data for the cln2 rad14 strain (AID 165);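 note: 0% = growth equal to vehicle treated cultures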
Settings: S. cerevisiae cln2 rad14 strain, at 50.0 µM, active compounds read high
Compounds without any hit were thinned out: in the full panel of roughly 79,000, 15% have a hit.
Write the value in % as a bare number.

growth inhibition reported for this compound "O=C(O)CSSCC(=O)O" : 23.1

growth inhibition reported for this compound "Cc1ccc(C(=O)N(C(C)C)C(C)C)cc1N=NN(C)C" : 12.2

growth inhibition reported for this compound COCC(O)CC#N (stereo unspecified) : 7.65

growth inhibition reported for this compound "CSc1nnc(CF)c(=O)[nH]1" : -4.2

growth inhibition reported for this compound O=C1C2Cc3ccccc3CN2C(=O)N1CN1CCN(CN2C(=O)C3Cc4ccccc4CN3C2=O)CC1 (stereo unspecified) : -10.9

growth inhibition reported for this compound "CCCCOCCOC(=O)Nc1cccc(Cl)c1" : -11.6

* * *

Can you tell me growth inhibition for the items I'm about to list?
Assay: NCI Yeast Anticancer Drug Screen. Data for the bub3 strain (AID 167)
Settings: S. cerevisiae bub3 mutant strain, at 50.0 µM, active compounds read high
Compounds without any hit were thinned out: in the full panel of roughly 79,000, 15% have a hit. Active and inactive are the calls of the source. Cut-off read from the data, not from the text of the source: active = growth inhibition above about 70%; inactive = the rest.

growth inhibition reported for this molecule CCOC(=O)C(CC(c1ccc2c(c1)OCO2)C(C(=O)OCC)[N+](=O)[O-])C(=O)OCC (configuration not stated) : 15.6% (inactive)

growth inhibition reported for this molecule "CCCCN(CCCC)C1=Nc2ccccc2-n2c(nnc2C(=O)OCC)C1" : 52% (inactive)

growth inhibition reported for this molecule "O=C[C@@H](CO)O[C@H](C=O)c1c[nH]c(=O)[nH]c1=O" : -36.5% (inactive)

growth inhibition reported for this molecule "CCOC(=O)CC[C@@H](NC(=O)c1ccc(NCc2ccc3nc(OC)c(OC)nc3c2)cc1)C(=O)OCC" : 15.8% (inactive)

growth inhibition reported for this molecule "COc1ccc(C(CC(=O)O)CC(=O)O)cc1" : 6.35% (inactive)

growth inhibition reported for this molecule "O=c1[nH]c2cc(Cl)ccc2c2cc(Cl)ccc12" : -0.3% (inactive)

growth inhibition reported for this molecule "Cc1ccc(S(=O)(=O)NNC(=O)c2ccc[nH]2)cc1" : 9.9% (inactive)

growth inhibition reported for this molecule CCCCC1C/C=C/C=C/C=C/C=C/C(OC2OC(C)C(O)C(N)C2O)CC2OC(O)(CC(O)CC3OC3/C=C/C(=O)O1)CC(O)C2C(=O)O (configuration not stated) : -1.7% (inactive)

growth inhibition reported for this molecule OCC1CSCC1CO (configuration not stated) : 11.7% (inactive)

growth inhibition reported for this molecule "NC(=O)NC12CC3CC(CC(F)(C3)C1)C2" : -47.5% (inactive)

growth inhibition reported for this molecule Cc1ccccc1N=CC(C=O)[N+](=O)[O-] (configuration not stated) : -4.7% (inactive)

growth inhibition reported for this molecule "CN(C)N=Nc1c(F)cc(F)c(F)c1F" : 7.3% (inactive)

* * *

Experiment: NCI Yeast Anticancer Drug Screen. Data for the rad50 strain (AID 155);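 note: 0% = growth of vehicle-only cultures of the same strain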
Conditions: S. cerevisiae rad50 strain growth inhibition; at 50.0 µM; active compounds read high
This is part of a sample that, as a whole, favours compounds with a hit. Of some 79,000 tested, about 15% had one in any assay.
assay_endpoint: growth inhibition (%)
Write the value in % as a bare number.

growth inhibition reported for this compound COC(=O)C(Cc1c[nH]c2ccccc12)NP(=O)(O)OCC1OC(n2cc(F)c(=O)[nH]c2=O)CC1O (configuration not stated) : -31.4

growth inhibition reported for this compound "CCOc1ccc(NC(=S)N/C=C(/C#N)C(N)=O)cc1" : -13.6

growth inhibition reported for this compound "Cc1cccc2c(N=[N+]=[N-])cc(C(F)(F)F)nc12" : 5.35

growth inhibition reported for this compound Nc1nc(SSc2nc(N)nc3c2ncn3C2OC(CO)C(O)C2O)c2ncn(C3OC(CO)C(O)C3O)c2n1 (configuration not stated) : 1.4

growth inhibition reported for this compound "O=C(/C=C/c1ccccc1)c1ccc(O)cc1O" : -27.3

growth inhibition reported for this compound O=C(COC(=O)C(CC(=O)c1ccccc1)Cc1ccccc1)c1ccc(-c2ccccc2)cc1 (configuration not stated) : 25.7

growth inhibition reported for this compound "C#CCN(C(=O)C(F)(F)F)C(/C=C\C(=O)OC)(C(=O)OCC)C(=O)OCC" : -10.3

growth inhibition reported for this compound "COC(=O)c1ccc2cc1Nc1c(C#N)cnc(=S)n1-2" : -2.3

growth inhibition reported for this compound NC(Cc1c(F)c(F)c(F)c(F)c1F)C(=O)O (configuration not stated) : -2.6

growth inhibition reported for this compound "CC(=O)Nc1nnc(S(C)(=O)=O)s1" : -29.6

growth inhibition reported for this compound "Cc1cccc(C(=O)O)c1-c1c(C)cccc1C(=O)O" : 13.3

growth inhibition reported for this compound "CC(=O)NCCN1CCN(C(C)=O)CC1" : 10.1

growth inhibition reported for this compound "O=C(O)c1cc(C(=O)O)cc(N(CCO)CCO)c1" : -19.1

growth inhibition reported for this compound "CN=NN(C)C(=O)NC" : -11.9

growth inhibition reported for this compound CC(=O)N1C(=O)C2(Nc3cccnc3N2)c2ccccc21 (configuration not stated) : -4.85

growth inhibition reported for this compound "COc1cc(/C=N/N=C(\N)NO)cc(Cl)c1O" : -20.4

growth inhibition reported for this compound "CC(=O)N(CCCc1ccccc1)C(C)(C)C" : 5.95

growth inhibition reported for this compound COc1cc2c(cc1OC)C1=NN(c3ccccc3)C(=O)C1CC2 (configuration not stated) : 22.8

growth inhibition reported for this compound "O=C1CC(=C=Nc2ccccc2)C(=O)N1c1ccccc1" : 3.6

growth inhibition reported for this compound "N#CC(C#N)=C(O)/C(=C/c1ccccc1[N+](=O)[O-])NC(=O)c1ccccc1" : 2.75

growth inhibition reported for this compound "CCOC(=O)C(Cc1ccccc1C)(NC(C)=O)C(=O)OCC" : 6.65

growth inhibition reported for this compound CN(C)CC1CCC(CN(C)C)C1=NO (configuration not stated) : 13.7

growth inhibition reported for this compound "CCCCCCCCCCCCCCCC(=O)O[C@@H]1[C@@H](C)[C@@]2(O)[C@@H](C=C(CO)C[C@]3(O)C(=O)C(C)=C[C@@H]23)[C@H]2[C@]1(OC(C)=O)[C@]2(C)CO" : 14.8

growth inhibition reported for this compound Cc1ccc(S(=O)(=O)OC(c2ccccc2)C(F)(F)F)cc1 (configuration not stated) : -4.05

growth inhibition reported for this compound "CN(C)C(=S)/N=c1\ss/c(=N\C(=S)N(C)C)n1C1CCCCC1" : 15

growth inhibition reported for this compound CO[C@@H]1C2C3c4ccccc4C(c4ccccc43)C2[C@H](OC)[C@H]2OC(c3ccccc3)O[C@H]21 (some centres not stated) : -13.4

growth inhibition reported for this compound "COc1ccc(CCNC(=O)Cc2ccccc2CCO)cc1OC" : 13.9

growth inhibition reported for this compound "CNC(=O)OCc1c(COC(=O)NC)c(-c2ccc(C(C)(C)C)cc2)n(C)c1C" : 3.45

growth inhibition reported for this compound "COc1ccc2c3c([nH]c2c1)CCN(CCCC(=O)c1ccc(F)cc1)C3" : -8.15

growth inhibition reported for this compound Cc1cccc2c1C(=O)C(C1OC(=O)c3ccccc31)C2 (configuration not stated) : 7.15

growth inhibition reported for this compound C#CC(C)OC(=O)Nc1ccccc1 (configuration not stated) : 28.6

growth inhibition reported for this compound "CCOC(=O)C(=O)c1cn(C)c(=O)n(C)c1=O" : 12.1

growth inhibition reported for this compound CC1(C)CC2(C)OC3(C)CC(C)(C)OC3(C)OC2(C)O1 (configuration not stated) : 0.05

growth inhibition reported for this compound "N#Cc1[nH]cnc1O" : -9.6

growth inhibition reported for this compound "CC12CC3CC(C1)CC(NCCO)(C3)C2" : -0.8

growth inhibition reported for this compound "CC[Si](CC)(CC)[Si](c1ccccc1)(c1ccccc1)c1ccccc1" : 42.1

growth inhibition reported for this compound "CCCCOC(=S)Nc1ccc(S(=O)(=O)c2ccc(NC(=S)OCCCC)cc2)cc1" : 23.4
